Source listed as patent US12365696B2.

molecular target: PTK2 (FAK) (Homo sapiens (Human), UniProt Q05397); assay: Z′-LYTE kinase assay (SelectScreen Biochemical Kinase Profiling), enzymatic IC50; settings: enzymatic, Z′-LYTE; read-out: FAK IC50
Sequence (Q05397 whole entry): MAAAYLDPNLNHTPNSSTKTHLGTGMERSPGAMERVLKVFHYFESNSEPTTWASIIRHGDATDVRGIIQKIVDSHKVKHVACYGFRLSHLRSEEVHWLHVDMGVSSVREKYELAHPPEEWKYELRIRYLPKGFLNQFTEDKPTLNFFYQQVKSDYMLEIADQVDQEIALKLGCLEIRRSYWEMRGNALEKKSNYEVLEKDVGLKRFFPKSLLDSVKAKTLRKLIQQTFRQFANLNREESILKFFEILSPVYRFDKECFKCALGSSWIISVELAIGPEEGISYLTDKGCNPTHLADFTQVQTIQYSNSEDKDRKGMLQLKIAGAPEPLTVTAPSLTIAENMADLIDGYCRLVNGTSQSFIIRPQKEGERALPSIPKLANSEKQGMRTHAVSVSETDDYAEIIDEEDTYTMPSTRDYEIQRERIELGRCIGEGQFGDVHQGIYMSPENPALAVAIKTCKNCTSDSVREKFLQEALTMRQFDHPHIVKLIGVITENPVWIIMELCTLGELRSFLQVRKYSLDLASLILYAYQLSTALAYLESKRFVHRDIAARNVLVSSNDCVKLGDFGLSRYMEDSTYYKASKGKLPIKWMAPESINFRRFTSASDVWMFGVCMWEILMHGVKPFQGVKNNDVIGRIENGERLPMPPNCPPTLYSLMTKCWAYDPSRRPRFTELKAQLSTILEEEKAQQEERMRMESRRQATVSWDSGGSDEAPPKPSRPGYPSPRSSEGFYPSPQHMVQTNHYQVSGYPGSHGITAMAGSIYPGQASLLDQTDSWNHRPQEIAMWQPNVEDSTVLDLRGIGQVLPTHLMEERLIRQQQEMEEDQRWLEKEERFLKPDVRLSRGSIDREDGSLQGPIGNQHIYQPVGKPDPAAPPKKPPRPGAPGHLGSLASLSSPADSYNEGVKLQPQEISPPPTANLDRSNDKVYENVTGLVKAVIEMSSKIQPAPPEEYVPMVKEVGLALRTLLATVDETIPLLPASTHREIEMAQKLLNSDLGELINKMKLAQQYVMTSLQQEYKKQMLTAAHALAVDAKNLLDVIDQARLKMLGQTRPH
# key: entry, value: log10(IC50)
property: log10(IC50) (log10 of the value in nM)

compoundstring=COc1cc(N2CCNCC2)ccc1Nc1ncc2c(n1)N(C)c1sc(C)nc1C(=O)N2C measurementtarget="PTK2 (FAK) (Homo sapiens (Human), UniProt Q05397)" assayvalue=1.64
compoundstring=Cc1nc2c(s1)N(C)c1nc(Nc3cnn(C)c3)ncc1N(C)C2=O measurementtarget="PTK2 (FAK) (Homo sapiens (Human), UniProt Q05397)" assayvalue=2.82
compoundstring=COc1cc(N2CCN(C)CC2)ccc1Nc1ncc2c(n1)N(C)c1sc(C)nc1C(=O)N2C measurementtarget="PTK2 (FAK) (Homo sapiens (Human), UniProt Q05397)" assayvalue=1.48
compoundstring=CCCOc1cc(N2CCN(C)CC2)ccc1Nc1ncc2c(n1)N(C)c1sc(C)nc1C(=O)N2C measurementtarget="PTK2 (FAK) (Homo sapiens (Human), UniProt Q05397)" assayvalue=2.19
compoundstring=Cc1nc2c(s1)N(C)c1nc(Nc3ccc(N4CCN(C)CC4)cn3)ncc1N(C)C2=O measurementtarget="PTK2 (FAK) (Homo sapiens (Human), UniProt Q05397)" assayvalue=2.29
